The measured values listed here are drawn from PubChem BioAssay (NCI).

test_method_notes: NCI Yeast Anticancer Drug Screen. Data for the bub3 strain (AID 167)
condition_set: S. cerevisiae bub3 mutant strain, at 50.0 µM (retest, dose inferred, filed as 5.0), active compounds read high
About 79,000 compounds went through this panel and 15% of them were active in at least one assay; those are over-represented in the sample as a whole. Activity calls are given as the source filed them. No stated cut-off is given here; in the data, active means growth inhibition above about 70%; inactive means the rest.

{"compound": "OCCCCCCCCCl", "growth inhibition": "0% (inactive)"}
{"compound": "Cc1cc(N/N=C/c2ccc([N+](=O)[O-])o2)c2cc3c(cc2n1)OCO3", "growth inhibition": "99% (active)"}
{"compound": "Cc1ccc(O)c(Cc2cccc(Cl)c2)c1", "growth inhibition": "99% (active)"}
{"compound": "O=S(NCc1ccccc1)c1ccccc1 (stereo not given)", "growth inhibition": "10% (inactive)"}
{"compound": "COc1cc2c(oc(=O)c3cc(C)cc(OC)c32)c2c(C3OC(C)C(O)C(C)(O)C3O)ccc(O)c12 (stereo not given)", "growth inhibition": "97% (active)"}
{"compound": "c1ccc2c(CCc3ccncc3)c[nH]c2c1", "growth inhibition": "75% (active)"}
{"compound": "COC(=O)CC1(O)c2cc(OC)c3cccc(OC)c3c2CCC1(C)C(=O)OC (stereo not given)", "growth inhibition": "98% (active)"}
{"compound": "O=c1[nH]c2cc(Cl)ccc2nc1/C=C(\\O)c1ccccn1", "growth inhibition": "27% (inactive)"}
{"compound": "C=CCOc1ccc(/C=N/NC(N)=S)cc1", "growth inhibition": "91% (active)"}
{"compound": "CC(=O)Oc1ccc(/C=C/c2ccncc2)cc1", "growth inhibition": "6% (inactive)"}
{"compound": "OC1(c2ccccc2)c2ccccc2C(O)(c2ccccc2)c2cc3c(cc21)CCCC3 (stereo not given)", "growth inhibition": "98% (active)"}
{"compound": "CN(C)CCC[Si]1(C)c2ccccc2CCc2ccccc21", "growth inhibition": "6% (inactive)"}
{"compound": "COc1ccc2c(c1)CC1c3c(ccc(OC)c3O)CC2N1C (stereo not given)", "growth inhibition": "75% (active)"}
{"compound": "CSC1NNC2(C(=O)N1)c1ccccc1-c1ccccc12 (stereo not given)", "growth inhibition": "97% (active)"}
{"compound": "C[C@]12CC[C@@H]3c4cc(OCC(F)(F)F)c(O)cc4CC[C@H]3[C@@H]1CC[C@@H]2O", "growth inhibition": "99% (active)"}
{"compound": "COC(=O)c1c2c(cc3c1CC1(Cc4cc5c(c(C)c4C1)CCC5)C3)CCC2 (stereo not given)", "growth inhibition": "10% (inactive)"}
{"compound": "Cc1ccc(C2CC(c3cccc([N+](=O)[O-])c3)=Nc3ccccc3S2)cc1 (stereo not given)", "growth inhibition": "78% (active)"}
{"compound": "c1ccc([Si](C[CH2][Sn]([c]2ccccc2)([c]2ccccc2)[c]2ccccc2)(c2ccccc2)c2ccc([Si](C[CH2][Sn]([c]3ccccc3)([c]3ccccc3)[c]3ccccc3)(c3ccccc3)c3ccccc3)cc2)cc1", "growth inhibition": "98% (active)"}
{"compound": "C=CCSc1nc2ccc(N3C(=O)C=CC3=O)cc2s1", "growth inhibition": "99% (active)"}
{"compound": "CC12CC(Sc3ccccc3N1)c1ccccc1O2 (stereo not given)", "growth inhibition": "73% (active)"}
{"compound": "CCOc1ccccc1C(=O)Oc1cccc(C)c1", "growth inhibition": "-6% (inactive)"}
{"compound": "O=c1oc2ccccc2c(O)c1/C=N/C(=S)Nc1ccccc1", "growth inhibition": "92% (active)"}
{"compound": "O=C(NC1CCN(Cc2ccccc2)CC1)c1cccc(I)c1", "growth inhibition": "65% (inactive)"}
{"compound": "OCC(CCc1c[nH]c2ccccc12)c1c[nH]c2ccccc12 (stereo not given)", "growth inhibition": "100% (active)"}
{"compound": "CC1=C(C(=O)Nc2ccccc2Cl)C(c2cccc([N+](=O)[O-])c2)C(C(=O)Nc2ccccc2Cl)=C(C)N1", "growth inhibition": "80% (active)"}
{"compound": "CC(C)(C)c1ccc(-n2c3nc(=O)n(-c4ccccc4C(F)(F)F)c(=O)c-3cc3ccccc32)cc1", "growth inhibition": "98% (active)"}
{"compound": "CNc1c(C(=O)Nc2ccccc2)c(=O)n(C)c(=O)n1C", "growth inhibition": "99% (active)"}
{"compound": "CCCCCNc1ccc2c(cc1=O)C(NC(C)=O)CCc1cc(OC)c(OC)c(OC)c1-2 (stereo not given)", "growth inhibition": "97% (active)"}
{"compound": "O=C1/C(=C/c2ccccc2)CCC/C1=C\\c1ccc(O)c(CN2CCCCC2)c1", "growth inhibition": "32% (inactive)"}
{"compound": "CC(C)CCC(C)(C)c1cc(O)ccc1O", "growth inhibition": "98% (active)"}
{"compound": "CSc1c(S(C)=O)c2ccccc2n1C (stereo not given)", "growth inhibition": "8% (inactive)"}
{"compound": "CCOCCOC(=O)c1cc([N+](=O)[O-])cc([N+](=O)[O-])c1", "growth inhibition": "94% (active)"}
{"compound": "CCCCCCCCCCCCOC(=O)C[n+]1cccc(C(=O)Nc2ccccc2)c1", "growth inhibition": "98% (active)"}
{"compound": "OCCOc1ccc2ccccc2c1-c1c(OCCOc2ccc3ccccc3c2-c2c(OCCO)ccc3ccccc23)ccc2ccccc12", "growth inhibition": "14% (inactive)"}
{"compound": "Oc1ccc(Cc2cccc(Br)c2)c(O)c1", "growth inhibition": "99% (active)"}
{"compound": "COCCOC1=C(Cl)C(=O)c2c(O)ccc(O)c2C1=O", "growth inhibition": "99% (active)"}
{"compound": "O=C(Nc1ccccc1)OCCCCl", "growth inhibition": "-19% (inactive)"}
{"compound": "CC(C)(Br)C(=O)c1ccc([N+](=O)[O-])o1", "growth inhibition": "99% (active)"}
{"compound": "O=c1c2cc3c(cc2c2cccc4c2n1CCC4)OCO3", "growth inhibition": "31% (inactive)"}
{"compound": "CCCN(CCC)C(=O)c1cccc2ccccc12", "growth inhibition": "28% (inactive)"}
{"compound": "COc1ccc(N=Nc2ccc3oc(=O)c(C(=O)Nc4ccc(Cl)cc4)cc3c2)cc1", "growth inhibition": "97% (active)"}
{"compound": "O=C(c1ccccc1)c1ccc(O)cc1O", "growth inhibition": "-17% (inactive)"}
{"compound": "CCCCOc1ccc(-c2c(COC(=O)NC)c(COC(=O)NC)c(C)n2C)cc1", "growth inhibition": "99% (active)"}
{"compound": "COc1ccc(/C=C2\\CCC/C(=C\\c3ccc(OC)cc3)C2=O)cc1", "growth inhibition": "-5% (inactive)"}
{"compound": "CC(=O)OC1SC(C)(C)n2c1nc1ccccc1c2=O (stereo not given)", "growth inhibition": "39% (inactive)"}

====

test_method_notes: NCI Yeast Anticancer Drug Screen. Data for the mec2-1 strain (AID 157)
condition_set: S. cerevisiae mec2-1 strain, at 50.0 µM, active compounds read high
The panel holds about 79,000 compounds, 15% with a hit somewhere; the sample as a whole holds those more often.
Use true when the recorded growth inhibition is no lower than 80%; use false when it is lower.

{"compound": "Cc1coc(C)c1C(=S)Nc1ccc(Cl)c(C(=O)OC(C)C)c1", "category_label": "true"}
{"compound": "CCOC(=O)C1(Br)CCN(S(=O)(=O)c2ccc(C)cc2)c2ccccc2C1=O (centres undefined)", "category_label": "true"}
{"compound": "Nc1ccc(-c2ccc(N)cc2S(=O)(=O)O)c(S(=O)(=O)O)c1", "category_label": "false"}
{"compound": "CCC(=S)N(C)O", "category_label": "false"}
{"compound": "O=[N+]([O-])CC(O)c1ccccc1Cl (centres undefined)", "category_label": "true"}
{"compound": "CC(C(=O)N1C(=O)N(C(=O)C(C)C(O)c2ccccc2)C(c2ccccc2)C1c1ccccc1)C(O)c1ccccc1 (centres undefined)", "category_label": "true"}
{"compound": "Cc1c(N)nc(C(CC(N)=O)NCC(N)C(N)=O)nc1C(=O)NC(C(=O)NC(C)C(O)C(C)C(=O)NC(C(=O)NCCc1nc(-c2nc(C(=O)NCCCNC(C)c3ccccc3)cs2)cs1)C(C)O)C(OC1OC(CO)C(O)C(O)C1OC1OC(CO)C(O)C(OC(N)=O)C1O)c1cnc[nH]1 (centres undefined)", "category_label": "true"}
{"compound": "COC1CCCCC1C(=O)C(C#N)C1CCCCC1C1CCCCC1 (centres undefined)", "category_label": "true"}
{"compound": "COc1cc(-c2nn3c(=O)n(-c4ccc(Cl)cc4)c(=O)nc3s2)cc(OC)c1OC", "category_label": "false"}

====

test_method_notes: NCI Yeast Anticancer Drug Screen. Data for the rad50 strain (AID 155);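 further: 0% = growth of vehicle-only cultures of the same strain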
condition_set: S. cerevisiae rad50 strain growth inhibition; at 50.0 µM (retest, dose inferred, filed as 5.0); active compounds read high
The panel holds about 79,000 compounds, 15% with a hit somewhere; the sample as a whole holds those more often. Calls of active or inactive are those of the source. No stated cut-off is given here; in the data, active means growth inhibition above about 70%; inactive means the rest.
Reported growth inhibition values for a set of compounds

{"compound": "O=C1/C(=C\\c2ccccc2)C(NC2CCCCC2)c2ccccc21 (stereo unspecified)", "growth inhibition": "99% (active)"}
{"compound": "Cc1cc(SCC(=O)c2ccc(Br)cc2)cc(C)[o+]1", "growth inhibition": "80% (active)"}
{"compound": "Cc1ccc(NNC(=O)C(O)C(O)C(O)C(O)CO)cc1 (stereo unspecified)", "growth inhibition": "98% (active)"}
{"compound": "CCCC/C=C(/CCCNCCc1ccccc1)[Si](C)(C)C", "growth inhibition": "98% (active)"}
{"compound": "CCOC(=O)c1cc(C)ccc1-c1ccc(C)cc1C(=O)OCC", "growth inhibition": "29% (inactive)"}
{"compound": "OC1c2ccccc2C2(O)C1C(c1ccccc1)C(c1ccccc1)C2(O)c1ccccc1 (stereo unspecified)", "growth inhibition": "95% (active)"}
